Listed below: Kp values for each entry.
# protocol description: Determination of in vivo pharmacokinetic parameters (blood and brain concentrations)
# condition details: male, brain and blood; rat, oral dosing 1 mg/kg; read-out: AUC B/B (brain/blood) ratio
# Description: Adult male rats (Charles River, Italy) are dosed with test compound orally at 1 mg/kg (5 ml/kg, in 5% v/v DMSO, 0.5% w/v HPMC in water) and intravenously at 0.5 mg/kg (2 ml/kg, in 5% v/v DMSO 40% w/v PEG400 in saline). […] The concentrations of test compound in blood (expressed as ng/ml) and brain (expressed as ng/g) at the different time points following either oral or intravenous dosing are analysed using a non-compartmental pharmacokinetic model using WinNonLin Professional version 4.1. […]
I only need the number, thanks.

Please review the following examples before continuing.
>  <smiles data>
Cc1ncc2[nH]c(=O)n(-c3ccc(Oc4cccc(OC(F)(F)F)c4)nc3)c2n1

>  <measure>
Kp

>  <experimental value>
0.29

$$$$
>  <smiles data>
CC1(C)COc2cccc(Oc3ncc(-n4c(=O)[nH]c5cccnc54)cn3)c21

>  <measure>
Kp

>  <experimental value>
0.65

$$$$
>  <smiles data>
O=c1[nH]c2cccnc2n1-c1cnc(Oc2cccc3c2C2(CC2)CO3)nc1

>  <measure>
Kp

>  <experimental value>
0.12

$$$$

Let us examine a further case.
Query: Kp; subject: `O=c1[nH]c2cccnc2n1-c1cnc(Oc2cccc(OC(F)(F)F)c2)nc1` 0.45

----------
Listed below: pEC50 values for each entry.
# system name: human Kv3.1 channels (hKv3.1) (Homo sapiens, UniProt P48547)
# Sequence (P48547 1-501 limits assumed): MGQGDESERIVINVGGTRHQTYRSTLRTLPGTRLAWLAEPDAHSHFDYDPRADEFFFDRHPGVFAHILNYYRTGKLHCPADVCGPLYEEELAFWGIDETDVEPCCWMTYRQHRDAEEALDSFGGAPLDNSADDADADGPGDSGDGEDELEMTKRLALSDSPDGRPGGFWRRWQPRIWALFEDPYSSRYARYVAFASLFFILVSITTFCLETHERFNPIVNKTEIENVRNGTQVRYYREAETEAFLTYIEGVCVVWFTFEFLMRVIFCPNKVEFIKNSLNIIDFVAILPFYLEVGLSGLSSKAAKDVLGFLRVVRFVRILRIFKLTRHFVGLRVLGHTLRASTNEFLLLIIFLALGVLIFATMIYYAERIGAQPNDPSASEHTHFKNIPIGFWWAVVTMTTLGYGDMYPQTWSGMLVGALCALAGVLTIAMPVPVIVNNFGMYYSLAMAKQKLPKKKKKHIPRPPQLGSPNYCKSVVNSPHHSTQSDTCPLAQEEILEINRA
# protocol description: Measurement of Kv3 channel modulation: Kv3.1 assay (IonWorks Quattro whole-cell electrophysiology)
# Assay type: cell-based
# condition details: Kv3.1 pEC50, Table 2, Example compounds; rounded to one decimal place; some compounds with two data sets (n given in cell)
pEC50 is a log-scale quantity: -log10 of the concentration expressed in molar.

>  <compound>
O=c1[nH]c2ncccc2n1-c1ccc(Oc2cccc3c2C2(CC2)CO3)nc1 [Example 36]

>  <pEC50>
6.20

$$$$

Let us examine a further case.
Query: pEC50; subject: O=c1[nH]c2cccnc2n1-c1ccc(Oc2cccc3c2C2(CC2)CO3)nc1 [Example 3] 7.00

----------
# protocol description: In vitro metabolic stability, rat liver microsomes
# Type: in vitro ADME
# condition details: CLint expressed as mL/min/g liver
Listed below: Cli rat values for each entry.
Express your answer in mL/min/g, writing the number without its unit.

>  <compound>
Cc1ccc(Oc2ncc(-n3c(=O)[nH]c4cccnc43)cn2)cc1OC(F)(F)F

>  <quantity unit>
mL/min/g

>  <Cli rat>
0.9

$$$$
>  <compound>
Cc1ccc(Oc2ccc(-n3c(=O)[nH]c4cnccc43)cn2)cc1OC(F)(F)F [RE13, reference compound]

>  <quantity unit>
mL/min/g

>  <Cli rat>
1.3

$$$$
>  <compound>
Cc1ccc(Oc2ccc(-n3c(=O)[nH]c4cncnc43)cn2)cc1OC(F)(F)F [RE12, reference compound]

>  <quantity unit>
mL/min/g

>  <Cli rat>
1.5

$$$$

Let us examine a further case.
Query: Cli rat; subject: `Cc1ccc(Oc2ccc(-n3c(=O)[nH]c4cccnc43)cn2)cc1OC(F)(F)F` 0.9

----------
Listed below: Kp at 0.5 h values for each entry.
# protocol description: Determination of in vivo pharmacokinetic parameters (blood and brain concentrations)
# condition details: male, brain and heart blood, intravenous, 0.5 mg/kg; rat, 0.5 h after dose administration; read-out: Brain/Heart Blood conc @0.5 hr
I only need the number, thanks.

Please review the following examples before continuing.
>  <smiles data>
O=c1[nH]c2cccnc2n1-c1cnc(Oc2cccc3c2C2(CC2)CO3)nc1

>  <Kp at 0.5 h>
0.13

$$$$
>  <smiles data>
CC1(C)COc2cccc(Oc3ncc(-n4c(=O)[nH]c5cccnc54)cn3)c21

>  <Kp at 0.5 h>
0.63

$$$$
>  <smiles data>
O=c1[nH]c2cccnc2n1-c1cnc(Oc2cccc(OC(F)(F)F)c2)nc1

>  <Kp at 0.5 h>
0.76

$$$$

Query: Kp at 0.5 h; subject: `Cc1ncc2[nH]c(=O)n(-c3ccc(Oc4cccc(OC(F)(F)F)c4)nc3)c2n1` 0.33

----------
# system name: human Kv3.1 channels (hKv3.1) (Homo sapiens, UniProt P48547)
# protocol description: Measurement of Kv3 channel modulation: Kv3.1 assay (IonWorks Quattro whole-cell electrophysiology)
# Assay type: cell-based
# condition details: Table 2, Example compounds; normalised to maximum effect of reference compound (50 microM)
Listed below: Kv3.1 max R % values for each entry.
Express your answer in %, writing the number without its unit.

>  <smiles data>
Cc1ncc2[nH]c(=O)n(-c3ccc(Oc4cccc(OC(F)(F)F)c4)nc3)c2n1

>  <Kv3.1 max R %, %>
144

$$$$
>  <smiles data>
Cc1cnc2c(c1)[nH]c(=O)n2-c1cnc(Oc2cccc3c2C2(CC2)CO3)cn1

>  <Kv3.1 max R %, %>
122

$$$$
>  <smiles data>
Cc1ccc(Oc2ccc(-n3c(=O)[nH]c4cncnc43)cn2)c2c1OCC21CC1

>  <Kv3.1 max R %, %>
117

$$$$
>  <smiles data>
Cc1ncc2[nH]c(=O)n(-c3ccc(Oc4cccc5c4C(C)(C)CO5)nc3)c2n1

>  <Kv3.1 max R %, %>
123

$$$$
>  <smiles data>
O=c1[nH]c2cccnc2n1-c1ccc(Oc2cccc3c2C2(CC2)CO3)nc1

>  <Kv3.1 max R %, %>
197

$$$$
>  <smiles data>
Cc1ccnc2c1[nH]c(=O)n2-c1cnc(Oc2cccc3c2C2(CC2)CO3)nc1

>  <Kv3.1 max R %, %>
201

$$$$

Query: Kv3.1 max R %; subject: `Cc1ccc(Oc2ncc(-n3c(=O)[nH]c4cccnc43)cn2)c2c1OCC21CC1` 217

Query: Kv3.1 max R %; subject: `Cn1cc2[nH]c(=O)n(-c3cnc(Oc4cccc5c4C4(CC4)CO5)cn3)c2n1` 96

----------
Listed below: EC50 values for each entry.
# system name: human Kv3.1 channels (hKv3.1) (Homo sapiens)
# protocol description: Measurement of Kv3 channel modulation: Kv3.1 assay (IonWorks Quattro whole-cell electrophysiology)
# Format: cell-based
# condition details: Table 2, Example compounds; rounded to one decimal place; some compounds with two data sets (n given in cell); read-out: Kv3.1 pEC50 (converted)
Express your answer in nM, writing the number without its unit.

Please review the following examples before continuing.
>  <smiles data>
O=c1[nH]c2c[nH]nc2n1-c1ccc(Oc2cccc3c2C2(CC2)CO3)nc1

>  <EC50 / nM>
10000

$$$$
>  <smiles data>
Cc1ncc2[nH]c(=O)n(-c3ccc(Oc4cccc(OC(F)(F)F)c4)nc3)c2n1

>  <EC50 / nM>
1000

$$$$
>  <smiles data>
Cc1ccc(Oc2ccc(-n3c(=O)[nH]c4cn(C)nc43)cn2)c2c1OCC21CC1

>  <EC50 / nM>
316

$$$$

Let us examine a further case.
Lab request: please report EC50 under test system human Kv3.1 channels (hKv3.1) (Homo sapiens) for `O=c1[nH]c2cccnc2n1-c1cnc(Oc2cccc3c2C2(CC2)CO3)cn1` 200

----------
Listed below: Kv3.1 max R % values for each entry.
# system name: human Kv3.1 channels (hKv3.1) (Homo sapiens)
# Sequence (P48547 1-501 limits assumed): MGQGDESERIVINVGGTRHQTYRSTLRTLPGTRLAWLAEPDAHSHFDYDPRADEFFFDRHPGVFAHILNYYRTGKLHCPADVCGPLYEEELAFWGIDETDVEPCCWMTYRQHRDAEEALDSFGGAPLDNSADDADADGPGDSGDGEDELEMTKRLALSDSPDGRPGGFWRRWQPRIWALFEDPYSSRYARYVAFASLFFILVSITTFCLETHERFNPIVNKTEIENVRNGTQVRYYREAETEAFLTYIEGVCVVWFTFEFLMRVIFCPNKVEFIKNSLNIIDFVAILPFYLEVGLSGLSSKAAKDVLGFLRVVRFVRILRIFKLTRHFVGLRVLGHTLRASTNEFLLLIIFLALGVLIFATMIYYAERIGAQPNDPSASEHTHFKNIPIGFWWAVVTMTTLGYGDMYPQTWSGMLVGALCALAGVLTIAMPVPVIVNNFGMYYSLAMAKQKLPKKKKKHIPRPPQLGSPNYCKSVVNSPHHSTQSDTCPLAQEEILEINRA
# protocol description: Measurement of Kv3 channel modulation: Kv3.1 assay (IonWorks Quattro whole-cell electrophysiology)
# Format: cell-based
# condition details: Table 2, Example compounds; normalised to maximum effect of reference compound (50 microM)
Express your answer in %, writing the number without its unit.

Please review the following examples before continuing.
>  <smiles data>
N#Cc1ccc(Oc2ccc(-n3c(=O)[nH]c4cccnc43)cn2)cc1OC(F)(F)F

>  <system name>
human Kv3.1 channels (hKv3.1) (Homo sapiens)

>  <Kv3.1 max R % [%]>
124

$$$$
>  <smiles data>
O=c1[nH]c2cccnc2n1-c1cnc(Oc2cccc3c2C2(CC2)CO3)cn1

>  <system name>
human Kv3.1 channels (hKv3.1) (Homo sapiens)

>  <Kv3.1 max R % [%]>
204

$$$$
>  <smiles data>
CC1(C)COc2cccc(Oc3ncc(-n4c(=O)[nH]c5cccnc54)cn3)c21

>  <system name>
human Kv3.1 channels (hKv3.1) (Homo sapiens)

>  <Kv3.1 max R % [%]>
194

$$$$
>  <smiles data>
Cc1ccc(Oc2ccc(-n3c(=O)[nH]c4ccncc43)cn2)c2c1OCC21CC1

>  <system name>
human Kv3.1 channels (hKv3.1) (Homo sapiens)

>  <Kv3.1 max R % [%]>
225

$$$$
>  <smiles data>
Cc1ccc(Oc2ccc(-n3c(=O)[nH]c4cccnc43)cn2)c2c1OCC21CC1

>  <system name>
human Kv3.1 channels (hKv3.1) (Homo sapiens)

>  <Kv3.1 max R % [%]>
148

$$$$
>  <smiles data>
COc1cccc(Oc2ncc(-n3c(=O)[nH]c4cccnc43)cn2)c1

>  <system name>
human Kv3.1 channels (hKv3.1) (Homo sapiens)

>  <Kv3.1 max R % [%]>
124

$$$$

Query: Kv3.1 max R %; subject: `Cc1ccnc2c1[nH]c(=O)n2-c1ccc(Oc2cccc3c2C2(CC2)CO3)nc1` 132

Query: Kv3.1 max R %; subject: `O=c1[nH]c2ncccc2n1-c1ccc(Oc2cccc3c2C2(CC2)CO3)nc1` 113

Query: Kv3.1 max R %; subject: `COc1cccc(Oc2ccc(-n3c(=O)[nH]c4cnc(C)nc43)cn2)c1` 140

Query: Kv3.1 max R %; subject: `Cc1ccc(Oc2ncc(-n3c(=O)[nH]c4cccnc43)cn2)cc1OC(F)(F)F` 174

Query: Kv3.1 max R %; subject: `Cc1ccc(Oc2ccc(-n3c(=O)[nH]c4cn(C)nc43)cn2)c2c1OCC21CC1` 99

Each recorded value in this set is attributed to patent US20240327406A1.
